system: S. marcescens IFO 12648; test: Minimal inhibitory concentration (M.I.C.), agar dilution method; type: cell-based, Serratia marcescens; settings: TSA, inoculum 10^7 /ml
Property: minimal inhibitory concentration (M.I.C.); scope: individual molecules

[
  {
    "Molecule": "CCNC(=O)O/N=C(\\C(=O)NC1C(=O)N2C(C(=O)O)=C(COC(N)=O)CSC12)c1csc(=N)[nH]1 (stereo not shown) [Example II - 8]",
    "Result": 6.25
  },
  {
    "Molecule": "CCCNC(=O)O/N=C(\\C(=O)NC1C(=O)N2C(C(=O)O)=C(COC(N)=O)CSC12)c1csc(=N)[nH]1 (stereo not shown) [Example II - 13]",
    "Result": 6.25
  },
  {
    "Molecule": "CNC(=O)O/N=C(\\C(=O)NC1C(=O)N2C(C(=O)O)=C(COC(C)=O)CSC12)c1csc(=N)[nH]1 (stereo not shown) [Example II - 1]",
    "Result": 3.13
  }
]

Okay, now this molecule:
What value of minimal inhibitory concentration (M.I.C.) has been recorded for this entry: CCNC(=O)O/N=C(\C(=O)NC1C(=O)N2C(C(=O)O)=C(CSc3nnc(C)s3)CSC12)c1csc(=N)[nH]1 (stereo not shown) [Example II - 10]
3.13
